# System: SKOV3
# Test: Primary qHTS to identify gynecologic anti-cancer compounds using libraries of approved drugs and bioactive compounds (AID 1345084); also: nearly all actives have a fitted effect of over 55% in size; also: potency is read from the fitted curve at half-maximal effect
# Test conditions: Gynecologic cancer cell panel viability, ATPlite luminescence, 48 h; series mostly up to 57.5 µM
Records with an inconclusive call do not appear. Active and inactive are the calls of the source. Calls follow the shape of the dose curve; as a rule, active = well fitted cell-killing curve with a large enough effect; inconclusive = small, poorly fitted or top-dose-only effect, or effect the other way; inactive = flat fitted curve, though single readings scatter.
Observable: Potency

> print(dat)
                                   molecule    observed.value
1  CCC(C)n1ncn(-c2ccc(N3CCN(c4ccc(OC[C@H]5CO[C@](Cn6cncn6)(c6ccc(Cl)cc6Cl)O5)cc4)CC3)cc2)c1=O (stereo partly drawn)          inactive
2                  C1COC(NC(C2CC2)C2CC2)=N1          inactive
3  CCCc1nc2c(C)cc(-c3nc4ccccc4n3C)cc2n1Cc1ccc(-c2ccccc2C(=O)O)cc1          inactive
4  CCN(CC)CCCC(C)Nc1ccnc2cc(Cl)ccc12 (stereo not drawn)          inactive
5                  NC[C@H](O)c1ccc(O)c(O)c1          inactive
6          Cc1oncc1C(=O)Nc1ccc(C(F)(F)F)cc1  25.1 µM (active)
7  CN(C)c1ccc(Nc2nc(N)n(C(=O)c3c(F)cccc3F)n2)cc1          inactive

Lookup: Quick one: Potency of "Cn1cnc([N+](=O)[O-])c1Sc1ncnc2nc[nH]c12" ?
Found: inactive

----------
# Test: qHTS of pediatric cancer cell lines to identify multiple opportunities for drug repurposing: Primary screen for SK-N-MC cells (AID 1347093)
# Test conditions: SK-N-MC viability, CellTiter-Glo luminescence, 48 h; series mostly up to 46 µM
# Description: Drug repurposing or repositioning has been offered as a strategy for drug development in oncology programs. […] [1] Shen, M et al. Quantitative high-throughput phenotypic screening of pediatric cancer cell lines identifies multiple opportunities for drug repurposing. […] Cells were assayed in growth media at a density of 500-1,000 cells/well. […] After a 15 min incubation at room temperature, samples were analyzed for luminescence intensity using a ViewLux High-throughput CCD imager equipped with clear filters.
Records with an inconclusive call do not appear. Active and inactive are the calls of the source. The call rests on the fitted dose curve; in most records, active means well fitted cell-killing curve with a large enough effect; inconclusive means small, poorly fitted or top-dose-only effect; inactive means no such curve, though single readings can be large or run the other way.
Write down the outcome that applies. Available outcomes: active, inactive

Consider the following illustrative entries.
> print(dat)
                                 cpd.smiles  assigned.label
1  Cc1ccc(NC(=O)c2cccc(C(C)(C)C#N)c2)cc1Nc1ccc2ncn(C)c(=O)c2c1          active
2  CNC(=O)c1ccccc1Sc1ccc2c(/C=C/c3ccccn3)n[nH]c2c1          active
3  COc1ccccc1-c1cccc(-c2c(O)c3cc(C#N)c(Cl)cc3[nH]c2=O)c1          active
4  COc1c(Cl)cc2c([nH]c3cnccc32)c1NC(=O)c1cccnc1C          active
5  Cc1cc(-c2ccc(CC(=O)Nc3ccc(-c4cccnc4)cc3)cc2)ccn1          active

Lookup: Name the outcome recorded for "Cc1cn[nH]c1" in the assay.
Found: inactive

----------
Quick reference for max response among some compounds
# Test: qHTS Assay for Lipid Storage Modulators (AID 1519)
# Test conditions: Drosophila S3 cells, BODIPY lipid droplet/cell ratio, laser cytometry; measured here: cell count channel max response; cells loaded with oleic acid
# Description: NIH Molecular Libraries Probe Production Centers Network [MLPCN] NIH Chemical Genomics Center [NCGC] Assay Submitter (PI): Beller, Mathias; Max-Planck-Institut fur Biophysikalische Chemie […] We dispensed 4 uL of cells at 1.25 x 10^6 cells/mL into LoBase Aurora COC 1,536-well plates (black walled, clear bottom) with a bottle-valve solenoid-based dispenser (Aurora) to obtain 5,000 cells/well. […] The ratio of the total intensity in PMT channel 1 over total intensity of channel 3 was also calculated. […]
Results filed as inconclusive are left out.
Give the number; % is assumed, so skip it.

Lookup: Quick one: max response of CC(C[N+](C)(C)C)OC(N)=O (stereo not given) ?
Found: -11.2
